Molecular target: MMP-13 (Homo sapiens)
Construct: made in house; host or cells: baculovirus / insect cells
Assay: In vitro MMP inhibition, IC50 determination (fluorogenic substrate I)
Format: biochemical
Details: value in parentheses; read-out: MMP-13 (IC-50)
Each entry below carries its recorded pIC50.
Scale for pIC50: -log10 of concentration given in mol/L; no unit attached.

{"Given smiles": "COCCOc1ccc(N2CCN(S(=O)(=O)C3(C(=O)NO)CCN(C4CC4)CC3)CC2)cc1F", "Experimental system": "MMP-13 (Homo sapiens)", "Observation type": "pIC50", "Value observed": 8.77}
{"Given smiles": "CCCCOc1ccc(N2CCN(S(=O)(=O)C3(C(=O)NO)CCN(C(=O)CCC)CC3)CC2)cc1", "Experimental system": "MMP-13 (Homo sapiens)", "Observation type": "pIC50", "Value observed": 9.46}
{"Given smiles": "CCCCOc1ccc(N2CCN(S(=O)(=O)C3(C(=O)NO)CCN(C4CC4)CC3)CC2)cc1", "Experimental system": "MMP-13 (Homo sapiens)", "Observation type": "pIC50", "Value observed": 9.52}
{"Given smiles": "CCCCOc1ccc(N2CCN(S(=O)(=O)C3(C(=O)NO)CCN(Cc4cccnc4)CC3)CC2)cc1F", "Experimental system": "MMP-13 (Homo sapiens)", "Observation type": "pIC50", "Value observed": 9.10}

Could you share which pIC50 value was measured for C#CCN1CCC(C(=O)NO)(S(=O)(=O)N2CCN(c3ccc(OCCCC)cc3)CC2)CC1 ?
10.00

Could you share which pIC50 value was measured for CCCCOc1ccc(N2CCN(S(=O)(=O)C3(C(=O)NO)CCN(c4ccc(C)cc4)CC3)CC2)cc1F ?
9.05

Could you share which pIC50 value was measured for CS(=O)(=O)c1ccc(N2CCN(S(=O)(=O)C3(C(=O)NO)CCOCC3)CC2)cc1 ?
7.21

###

Biological target: MMP-13 (Homo sapiens, UniProt P45452)
Construct: made in house; host or cells: baculovirus / insect cells
Assay: In vitro MMP inhibition, Ki determination (fluorogenic substrate II)
Assay type: biochemical
Conditions: value outside parentheses; read-out: MMP-13 Ki
Protocol: Several hydroxamic acids and salts thereof were analyzed in in vitro assays to determine their ability to inhibit the MMP cleavage of peptide substrates. […] and IC50 constants were calculated from the assayed hydroxamic acid-MMP interactions. […] The assays from which the Ki determinations were made were performed as follows. […] In the absence of MMP inhibitory activity, substrate II was cleaved at the Gly-Leu bond resulting in an increase of relative fluorescence. […]
Observation type: pKi
Scale for pKi: -log10 of concentration given in mol/L; no unit attached.

Could you share which pKi value was measured for O=C(NO)C1(S(=O)(=O)N2CCN(c3ncc(-c4ccc([N+](=O)[O-])cc4)s3)CC2)CCOCC1 ?
10.12

###

Each entry below carries its recorded Ki.
Biological target: MMP-1 (Homo sapiens, UniProt P03956)
Construct: made in house; host or cells: MMP-1-transfected HT-1080 cells (spent media)
Sequence (P03956 100-469, species assumed): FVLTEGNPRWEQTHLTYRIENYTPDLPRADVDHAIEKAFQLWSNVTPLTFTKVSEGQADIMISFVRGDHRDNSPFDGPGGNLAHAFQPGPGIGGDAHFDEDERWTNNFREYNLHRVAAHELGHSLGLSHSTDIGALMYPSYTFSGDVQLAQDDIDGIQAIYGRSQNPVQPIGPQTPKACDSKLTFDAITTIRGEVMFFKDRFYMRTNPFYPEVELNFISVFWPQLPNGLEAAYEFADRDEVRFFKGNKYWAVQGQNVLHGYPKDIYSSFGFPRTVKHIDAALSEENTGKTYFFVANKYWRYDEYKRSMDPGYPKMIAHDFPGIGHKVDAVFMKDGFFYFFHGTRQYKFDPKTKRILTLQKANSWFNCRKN
Assay: MMP-1 inhibition (in vitro Ki)
Format: biochemical
Details: Table 8; read-out: MMP-1 Ki
Structures can show the parent of a compound that is named as a salt.
Unit µM implied. Number only.

Illustrative cases are given below, each with its answer.
{"Compound": "COCCC(CCOC)(C(=O)NO)S(=O)(=O)N1CCC(c2ccc(CCC(F)(F)C(F)(F)F)cn2)CC1 [Example A61, Hydrochloride]", "Experimental system": "MMP-1 (Homo sapiens, UniProt P03956)", "Unit of measurement": "µM", "Value observed": 3.53}
{"Compound": "CC(F)(F)CCc1ccc(C2CCN(S(=O)(=O)C3(C(=O)NO)CCOCC3)CC2)nc1 [Example A63, Hydrochloride]", "Experimental system": "MMP-1 (Homo sapiens, UniProt P03956)", "Unit of measurement": "µM", "Value observed": 4.37}

Alright, here's another compound for you.
Could you share which Ki value was measured for O=C(NO)C1(S(=O)(=O)N2CCC(CCCCOCCCC(F)(F)F)CC2)CCOCC1 ?
4.26

###

Each entry below carries its recorded pKi.
Molecular target: MMP-14 (Homo sapiens)
Construct: The catalytic domain enzyme was expressed in E. coli inclusion bodies, solubilized in urea; made in house
Assay: In vitro MMP inhibition, Ki determination (fluorogenic substrate II)
Assay type: biochemical
Conditions: value not in parenthesis; read-out: MMP-14 Ki
Scale for pKi: -log10 of concentration given in mol/L; no unit attached.

Illustrative cases are given below, each with its answer.
{"Molecule": "CCc1ccc(N2CCN(S(=O)(=O)C3(C(=O)NO)CCOCC3)CC2)nc1", "pKi": 7.01}
{"Molecule": "O=C(NO)C1(S(=O)(=O)N2CCN(c3ncc(Br)cn3)CC2)CCOCC1 [Example 103]", "pKi": 6.64}
{"Molecule": "CCCCCCc1ccc(N2CCN(S(=O)(=O)C3(C(=O)NO)CCN(CCOC)CC3)CC2)cc1", "pKi": 5.34}
{"Molecule": "CC(C)(C)N1CCC(C(=O)NO)(S(=O)(=O)N2CCN(c3ccc(OCCCC(F)(F)F)cc3F)CC2)CC1", "pKi": 5.10}
{"Molecule": "CCCCOc1ccc(N2CCN(S(=O)(=O)C3(C(=O)NO)CCN(c4cc(C)ccn4)CC3)CC2)cc1", "pKi": 5.90}
{"Molecule": "CCCCCc1cnc(N2CCN(S(=O)(=O)C3(C(=O)NO)CCOCC3)CC2)cn1", "pKi": 5.49}
{"Molecule": "CCCCOc1ccc(N2CCN(S(=O)(=O)C3(C(=O)NO)CCN(C(=O)c4cccs4)CC3)CC2)cc1", "pKi": 5.56}
{"Molecule": "CC(C)CCOc1ccc(N2CCN(S(=O)(=O)C3(C(=O)NO)CCN(C4CC4)CC3)CC2)cc1", "pKi": 5.27}

Alright, here's another molecule for you.
Could you share which pKi value was measured for CCCCOc1ccc(N2CCN(S(=O)(=O)C3(C(=O)NO)CCN(C(=O)NC(C)(C)C)CC3)CC2)cc1 ?
5.40

###

Each entry below carries its recorded IC50.
Biological target: MMP-13 (Homo sapiens)
Construct: made in house; host or cells: baculovirus / insect cells
Test: In vitro MMP inhibition, IC50 determination (fluorogenic substrate I)
Assay type: biochemical
Details: value in parenthesis; read-out: MMP-13 (IC-50)
Unit nM implied. Number only.

{"Compound": "CCOc1ccc(N2CCN(S(=O)(=O)C3(C(=O)NO)CCN(CCOC)CC3)CC2)cc1F [Example 184]", "Experimental system": "MMP-13 (Homo sapiens)", "IC50 [nM]": 2.26}

Value wanted: IC50 (MMP-13 (Homo sapiens)) of entry CCc1cnc(N2CCN(S(=O)(=O)C3(C(=O)NO)CCN(CCOC)CC3)CC2)nc1 [Example 187]
47.3

Value wanted: IC50 (MMP-13 (Homo sapiens)) of entry O=C(NO)C1(S(=O)(=O)N2CCN(c3ccc(Cl)nn3)CC2)CCOCC1 [Example 198]
285

Value wanted: IC50 (MMP-13 (Homo sapiens)) of entry COCCN1CCC(C(=O)NO)(S(=O)(=O)N2CCN(c3ccc(C)cc3)CC2)CC1 [Example 194]
3.1

###

Biological target: MMP-13 (Homo sapiens)
Construct: made in house; host or cells: baculovirus / insect cells
Experiment: In vitro MMP inhibition, Ki determination (fluorogenic substrate II)
Assay type: biochemical
Conditions: value outside parentheses; read-out: MMP-13 Ki
pKi: −log10 of the molar value.
Answer label 0 if pKi is under 9, and label 1 if it is 9 or more.

{"Compound": "CCCCOc1ccc(C2CCN(S(=O)(=O)C3(C(=O)NO)CCOCC3)CC2)nc1", "Assigned label": "label 1"}
{"Compound": "O=C(NO)C1(S(=O)(=O)N2CCC(c3ccc(CCCC(F)(F)F)cc3)CC2)CCN(C2CC2)CC1", "Assigned label": "label 1"}
{"Compound": "O=C(NO)C1(S(=O)(=O)N2CCN(c3cnn(-c4ccccc4)c(=O)c3Cl)CC2)CCOCC1", "Assigned label": "label 0"}
{"Compound": "CCCCOc1ccc(N2CCN(S(=O)(=O)C3(C(=O)NO)CCN(Cc4ccco4)CC3)CC2)cc1", "Assigned label": "label 1"}
{"Compound": "CCCCCc1ccc(C2CCN(S(=O)(=O)C3(C(=O)NO)CCOCC3)CC2)nc1", "Assigned label": "label 1"}
{"Compound": "Cc1cccc(-c2csc(N3CCN(S(=O)(=O)C4(C(=O)NO)CCOCC4)CC3)n2)c1 [Example 413]", "Assigned label": "label 0"}
{"Compound": "CCCCOc1ccc(N2CCN(S(=O)(=O)C3(C(=O)NO)CCN(c4ccc(C)nn4)CC3)CC2)cc1", "Assigned label": "label 1"}
{"Compound": "CCc1ccc(-c2cnc(N3CCN(S(=O)(=O)C4(C(=O)NO)CCOCC4)CC3)s2)cc1", "Assigned label": "label 1"}

# bool: pKi of N#Cc1cccc(-c2cnc(N3CCN(S(=O)(=O)C4(C(=O)NO)CCOCC4)CC3)s2)c1 >= 9
label 1

# bool: pKi of O=C(NO)C1(S(=O)(=O)N2CCN(c3ncc(-c4ccc(O)cc4)s3)CC2)CCOCC1 >= 9
label 1

# bool: pKi of O=C(NO)C1(S(=O)(=O)N2CCN(c3ccc(-c4cccc(OC(F)(F)F)c4)cn3)CC2)CCOCC1 >= 9
label 0

# bool: pKi of O=C(NO)C1(S(=O)(=O)N2CCN(c3ccc(CCCC(F)(F)F)cc3)CC2)CCOCC1 >= 9
label 1

# bool: pKi of CCCCc1ccc(C2CCN(S(=O)(=O)C3(C(=O)NO)CCNCC3)CC2)nc1 >= 9
label 0

# bool: pKi of COc1ccccc1-c1ccc(N2CCN(S(=O)(=O)C3(C(=O)NO)CCOCC3)CC2)nc1 >= 9
label 0

All values here come from patent US20050209278A1.
